tested-system: Protein-arginine deiminase type-2 (Homo sapiens) (UniProt Q9Y2J8)
Sequence (Q9Y2J8 whole entry, looked up): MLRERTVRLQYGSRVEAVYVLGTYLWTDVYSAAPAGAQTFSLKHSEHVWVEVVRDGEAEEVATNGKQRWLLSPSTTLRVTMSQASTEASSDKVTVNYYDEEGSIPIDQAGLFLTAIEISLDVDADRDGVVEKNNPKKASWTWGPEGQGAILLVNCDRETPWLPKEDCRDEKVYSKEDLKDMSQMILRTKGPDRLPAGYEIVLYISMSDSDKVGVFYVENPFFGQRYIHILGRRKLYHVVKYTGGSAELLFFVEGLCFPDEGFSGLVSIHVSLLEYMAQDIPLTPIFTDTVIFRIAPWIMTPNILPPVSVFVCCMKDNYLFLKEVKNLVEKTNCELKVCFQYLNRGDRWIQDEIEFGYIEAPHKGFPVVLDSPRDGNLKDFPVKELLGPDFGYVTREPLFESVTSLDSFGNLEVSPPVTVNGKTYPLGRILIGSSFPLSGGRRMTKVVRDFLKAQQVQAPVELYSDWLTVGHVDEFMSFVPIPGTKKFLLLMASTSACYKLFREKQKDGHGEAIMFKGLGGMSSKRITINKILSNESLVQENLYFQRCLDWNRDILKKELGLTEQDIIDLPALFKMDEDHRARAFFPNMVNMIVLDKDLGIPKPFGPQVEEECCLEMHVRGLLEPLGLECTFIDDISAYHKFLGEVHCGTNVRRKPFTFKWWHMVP
measurement-protocol: single-point PAD isozyme enzyme inhibition – biochemical, colorimetric, BAEE substrate, HTS hits, selectivity assay for PAD4 inhibitor project, late-stage follow-up (AID 588488)
condition-description: Recombinant PAD1-4, BAEE citrulline colorimetric absorbance; PAD2; at 10 µM; stronger effect = higher value
readout-label: inhibition (%)

compound | tested-system | readout-label | readout-value
CCN(CC)c1cccc(OC2=NS(=O)(=O)c3ccccc32)c1 | Protein-arginine deiminase type-2 (Homo sapiens) (UniProt Q9Y2J8) | inhibition | 18
Cc1nonc1OC(C)CNc1ccc([N+](=O)[O-])cc1 (stereo unspecified) | Protein-arginine deiminase type-2 (Homo sapiens) (UniProt Q9Y2J8) | inhibition | 27
CC(=O)N(Cc1cc(=O)[nH]c2ccccc12)c1cccc(C)c1 | Protein-arginine deiminase type-2 (Homo sapiens) (UniProt Q9Y2J8) | inhibition | 21

[A] Cc1nn(-c2cccc(Cl)c2)c2c1C(c1cccnc1)C(C#N)=C(N)O2 (stereo unspecified)
[B] Cc1cc2ncn(-c3ncccc3[N+](=O)[O-])c2cc1C
[C] CCOc1nc(Nc2ccc(OC)cc2OC)nc(OCC)n1
// query List items by inhibition in falling order. Please respond by ranking the labels in the order requested.
// result C, A, B

This collection of values is drawn from PubChem BioAssay AID588488.
